The reported measurements were obtained from patent US20170355757A1.

Target: T1, Human C5 (human, UniProt P01031 19-1676)
T1 construct: The natural protein has a beta and an alpha chain; also called complement factor 5; complement component 5
Assay: SPR, mAb captured by anti-hFc, 37C
Protocol: Equilibrium dissociation constants (KD values) for C5 binding to purified anti-C5 antibodies were determined using a real-time surface plasmon resonance biosensor assay on a Biacore T200 instrument. […] Human C5 was obtained from a commercial source (EMD). […] Association of all the C5 reagents to each of the captured monoclonal antibodies was monitored for 3 minutes and their dissociation in HBST running buffer was monitored for 8 minutes. […]
Readout Kind: koff
I'd appreciate it if you wrote the number followed by its unit.

// query koff value for entry H4H12166P8 (antibody, human IgG4, V domains shown, human IgG4 Fc with S108P hinge mutation) VH: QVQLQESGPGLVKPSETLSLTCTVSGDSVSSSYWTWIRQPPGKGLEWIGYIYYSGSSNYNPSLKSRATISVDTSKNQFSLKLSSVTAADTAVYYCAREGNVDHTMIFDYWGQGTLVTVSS VL: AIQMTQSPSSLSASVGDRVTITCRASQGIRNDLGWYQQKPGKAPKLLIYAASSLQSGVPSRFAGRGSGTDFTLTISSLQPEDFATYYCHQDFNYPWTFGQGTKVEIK
0.00209 s⁻¹

Tell me the measured koff of H4H12175P (antibody, human IgG4, V domains shown) VH: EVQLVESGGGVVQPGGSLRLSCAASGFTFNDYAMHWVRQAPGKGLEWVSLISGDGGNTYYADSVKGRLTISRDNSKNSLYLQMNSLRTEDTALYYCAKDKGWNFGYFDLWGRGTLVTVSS VL: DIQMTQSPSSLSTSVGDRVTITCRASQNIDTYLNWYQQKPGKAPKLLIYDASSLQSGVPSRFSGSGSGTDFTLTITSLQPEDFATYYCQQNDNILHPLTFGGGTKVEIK , please.
0.000637 s⁻¹

I would be grateful if you could share the reported koff for H4H11686N (antibody, human IgG4, V domains shown, also called H2M11686N) VH: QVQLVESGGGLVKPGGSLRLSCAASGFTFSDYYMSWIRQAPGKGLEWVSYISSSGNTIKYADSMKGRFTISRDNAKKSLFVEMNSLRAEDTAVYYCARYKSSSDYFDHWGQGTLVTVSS VL: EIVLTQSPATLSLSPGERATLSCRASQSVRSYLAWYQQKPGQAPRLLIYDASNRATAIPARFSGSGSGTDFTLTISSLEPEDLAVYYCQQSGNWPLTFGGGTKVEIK .
0.000156 s⁻¹
